Assay: in vivo
Test context: sc, 22 mg
Method: The study compared various dose routes: sublingual (SL), per oral tablet (PO), subcutaneous (SC) and intravenous (IV). […] An Oral Irritation assessment was performed (SL film group): Predose (0) and 24 hr postdose by Draize scoring.
Observable: AUC(0-t) (ng·h/mL)
Kindly answer with a numeric value in ng·h/mL, unit omitted.

Fill in the blank: the reported AUC(0-t) of CNC[C@H](O)c1ccc(OC(=O)C(C)(C)C)c(OC(=O)C(C)(C)C)c1 (racemic) is ____.
25.1

###

Assay: AQST-109 single and repeat dose PK vs EpiPen and 0.3 mg IM (AQ109201)
Format: in vivo, human
Test context: human, plasma, intramuscular, 0.3 mg, Repeat Dose (10 min); read-out: AUC0-45 min
Observable: AUC(0-t) (ng·h/mL)
# unit: ng·h/mL | format: bare number

Which AUC(0-t) is reported for this compound? CNC[C@H](O)c1ccc(O)c(O)c1 [Epinephrine IM Injection, epinephrine]
0.181
